B1: SMOC2 (parent)
chain: PALETQPQGDEEDIASRYPTLWTE

Variants of: B1
Test: protein stability index of a GFP-peptide fusion (GPS, HEK-293T) (PSI 1-6); higher = more stable;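 note: lentivirally expressed fusions sorted by FACS into six bins by GFP to DsRed ratio, PSI derived from sequencing read proportions per bin multiplied by bin number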
Settings: c terminus: a fixed tail appended
Assay Endpoint: protein stability index

• PALETQPQGDEEAIASRYPTLWTE [D13A] = 4.35
• PALETQPQGDEEDIAHRYPTLWTE [S16H] = 3.96
• PALETQTQGDEEDIASRYPTLWTE [P7T] = 4.54
• PALETQPQGDEEDIASRYLTLWTE [P19L] = 4.87
• PQLETQPQGDEEDIASRYPTLWTE [A2Q] = 4.54
• PALETQPQGDEVDIASRYPTLWTE [E12V] = 3.75
• PALETQPQGDEEDIASRYPTLWTQ [E24Q] = 4.82
• PALETQPQGKEEDIASRYPTLWTE [D10K] = 3.53
• PALETQPQMDEEDIASRYPTLWTE [G9M] = 4.76
• PALCTQPQGDEEDIASRYPTLWTE [E4C] = 3.96
• PALETQPQKDEEDIASRYPTLWTE [G9K] = 4.55
• PALETQPQGDEEDIASRYPTLRTE [W22R] = 5.39
